- Protocol Details: Half life in mouse plasma after 2 hrs by LC/MS-MS analysis
- Assay type: ADME, cell-free
Quantity Measured: half-life (min)
Entry rule: numbers only, all in min.

# Smiles Data, half-life, min
rows = [
    ("O=C(N[C@H]1CNC1=O)OCCCCC1CCCCC1", 41),
]

In the following, a different compound is considered.
Tell me half-life reported for O=C(N[C@H]1CNC1=O)OCc1ccc2c(c1)OC(F)(F)O2 25

----------
IC50 values recorded for Acid ceramidase (Homo sapiens, UniProt Q13510)
Could you give me the number in µM? Just the number is fine.

# Smiles Data, IC50 / µM
measured = [
    ("O=C(N[C@H]1CNC1=O)OCCCCC1CCC(F)(F)CC1", 10.5),
]

Now look at this entry.
Fill: IC50 (Acid ceramidase (Homo sapiens, UniProt Q13510)) for this molecule O=C(N[C@H]1CNC1=O)OCc1ccc2c(c1)OC(F)(F)O2 8.09
